# Tested target: mGluR5 (Rattus norvegicus, UniProt P31424)
# Sequence (P31424 21-1203): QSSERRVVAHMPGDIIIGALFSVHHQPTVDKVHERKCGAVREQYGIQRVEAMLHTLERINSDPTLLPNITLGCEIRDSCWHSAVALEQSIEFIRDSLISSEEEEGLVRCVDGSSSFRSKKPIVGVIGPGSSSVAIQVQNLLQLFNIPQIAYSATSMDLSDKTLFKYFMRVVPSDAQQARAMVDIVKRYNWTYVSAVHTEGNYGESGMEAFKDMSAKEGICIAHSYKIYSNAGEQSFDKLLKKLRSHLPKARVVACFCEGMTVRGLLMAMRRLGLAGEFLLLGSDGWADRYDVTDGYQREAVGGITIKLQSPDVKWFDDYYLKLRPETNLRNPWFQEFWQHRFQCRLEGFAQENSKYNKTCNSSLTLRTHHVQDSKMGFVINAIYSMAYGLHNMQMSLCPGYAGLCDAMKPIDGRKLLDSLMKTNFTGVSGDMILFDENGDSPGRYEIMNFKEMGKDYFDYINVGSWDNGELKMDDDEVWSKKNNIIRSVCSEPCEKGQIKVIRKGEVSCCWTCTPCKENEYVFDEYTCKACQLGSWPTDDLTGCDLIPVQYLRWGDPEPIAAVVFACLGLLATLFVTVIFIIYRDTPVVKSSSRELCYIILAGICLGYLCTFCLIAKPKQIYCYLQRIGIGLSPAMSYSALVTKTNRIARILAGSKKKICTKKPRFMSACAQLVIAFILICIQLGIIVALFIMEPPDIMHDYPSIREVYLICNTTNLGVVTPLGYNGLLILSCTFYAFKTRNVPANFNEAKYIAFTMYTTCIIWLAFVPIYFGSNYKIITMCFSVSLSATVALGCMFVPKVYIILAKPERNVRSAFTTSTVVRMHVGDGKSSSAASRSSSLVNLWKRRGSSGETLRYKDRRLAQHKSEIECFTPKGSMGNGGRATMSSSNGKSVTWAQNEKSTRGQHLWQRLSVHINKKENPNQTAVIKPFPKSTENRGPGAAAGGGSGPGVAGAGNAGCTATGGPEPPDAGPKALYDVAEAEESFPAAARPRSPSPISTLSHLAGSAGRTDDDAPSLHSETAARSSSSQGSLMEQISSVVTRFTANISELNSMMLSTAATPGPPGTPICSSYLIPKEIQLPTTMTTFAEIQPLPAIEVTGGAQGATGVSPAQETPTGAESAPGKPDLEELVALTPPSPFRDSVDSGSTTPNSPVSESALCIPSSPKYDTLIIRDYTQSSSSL
# Test name: IC50 column under 'Biological Activity' (assay not identified in the shown text; not the binding Ki)
Result type: log10 IC50 (log10 of the value in nM)
Hey, these are logged values: log10 of IC50, nM being the unit before logging.

| Smiles structure | Tested target | Result type | Reported |
| --- | --- | --- | --- |
| COc1cccc(N2CCN(C(=O)c3ccc(OC)c(C#Cc4ccccn4)c3)CC2)c1 | mGluR5 (Rattus norvegicus, UniProt P31424) | log10 IC50 | 1.91 |
| O=C(c1ccc(OC(F)(F)F)c(C#Cc2ccccn2)c1)N1CCN(c2ccccn2)CC1 | mGluR5 (Rattus norvegicus, UniProt P31424) | log10 IC50 | 0.85 |
| CCOc1ccc(C(=O)N2CCN(c3ccccn3)CC2)cc1C#Cc1ccccn1 | mGluR5 (Rattus norvegicus, UniProt P31424) | log10 IC50 | 1.28 |
| O=C(c1ccc(F)c(C#Cc2ccccn2)c1)N1CCN(c2noc3ccccc23)CC1 | mGluR5 (Rattus norvegicus, UniProt P31424) | log10 IC50 | 1.38 |

Ask: For the compound `COc1ccc(C(=O)N2CCN(c3ccc(C#N)cn3)CC2)cc1C#Cc1ccccn1` , give its reported log10 IC50.
Result: 2.28

Ask: For the compound `COc1ccc(C(=O)N2CCN(c3cc(C)ccn3)CC2)cc1C#Cc1ccccn1` , give its reported log10 IC50.
Result: 1.49

Ask: For the compound `COc1ccc(C(=O)N2CCN(c3cccc(C)n3)CC2)cc1C#Cc1ccccn1` , give its reported log10 IC50.
Result: 1.53
